# MEASURED_TARGET: Gal(a1-3)Gal(b1-3)GlcNAc(b1-6)GalNAc
# METHOD_DESCRIPTION: glycan array binding signal (z-score within array); higher = stronger binding
# RECORDED_CONDITIONS: glycan notation: IUPAC condensed, linker removed
Many of the other results were omitted from the sample, so the strongest signals are more common in it than they were.
MEASURED_PROPERTY: glycan array binding signal (z-score)
Numbers only.

1) Pwp2 (Candida glabrata) (protein) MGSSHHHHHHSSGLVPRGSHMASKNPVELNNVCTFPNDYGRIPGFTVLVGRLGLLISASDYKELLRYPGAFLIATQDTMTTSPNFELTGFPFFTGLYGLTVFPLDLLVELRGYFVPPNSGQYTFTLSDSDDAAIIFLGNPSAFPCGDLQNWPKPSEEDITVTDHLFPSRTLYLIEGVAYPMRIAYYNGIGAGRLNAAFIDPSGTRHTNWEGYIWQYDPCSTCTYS	-0.526

Next item in the queue.
Param item = PLU (Photorhabdus luminiscence) (protein) HHHHHHENLYFQSSIVFASIDPRSNPLQTSSQNYVDIPGLKLDVSKYSNSPCLTALITLNIPTPYASGNNFPGGNFAIVTDQGEQLAYGGFTYSSKIPENSGRMPFTLVARYSLASNVSTIKAQWSNIRGSTVHIDSYASISAVIQCNQLV ; retrieve measured glycan array binding signal (z-score).
-0.253
